Values were extracted from patent US12569502B2.

TEST TARGET: human GPR39 receptors on human GPR39-2 cell lines (Homo sapiens, UniProt O43194)
Construct: P2A-mCherry (C)
Sequence (O43194 whole entry): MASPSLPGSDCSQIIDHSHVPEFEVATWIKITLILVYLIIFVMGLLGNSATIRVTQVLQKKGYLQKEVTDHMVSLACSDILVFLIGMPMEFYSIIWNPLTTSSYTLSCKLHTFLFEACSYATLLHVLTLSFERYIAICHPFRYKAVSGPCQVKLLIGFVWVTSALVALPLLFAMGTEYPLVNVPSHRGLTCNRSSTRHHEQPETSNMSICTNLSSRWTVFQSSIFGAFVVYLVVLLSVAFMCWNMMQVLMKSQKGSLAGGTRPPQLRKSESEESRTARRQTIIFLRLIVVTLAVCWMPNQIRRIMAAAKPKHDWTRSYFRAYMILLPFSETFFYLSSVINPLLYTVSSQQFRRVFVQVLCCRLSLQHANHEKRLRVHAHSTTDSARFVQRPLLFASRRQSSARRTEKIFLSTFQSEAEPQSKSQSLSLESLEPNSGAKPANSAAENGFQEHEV
PROTOCOL SUMMARY: FLIPR calcium imaging on human GPR39-2 cell line stably expressing human GPR39
Assay type: cell-based
EXPERIMENTAL CONTEXT: human GPR39-2 cells, no added zinc ions; read-out: EC50 Only agonist
Measured EC50 by item
State the result as a value with its unit after it.

- MOLECULE: "[Zn+2] [Zinc ions, reference compound]"
  EC50: "12 µM"

Now consider the entry below.
Entry C[C@H](CCC(=O)NCCS(=O)(=O)[O-])[C@H]1CC[C@H]2[C@@H]3CC[C@@H]4C[C@H](OS(=O)(=O)[O-])CC[C@]4(C)[C@H]3CC[C@]12C.[Na+].[Na+] [TLCAS] ; EC50 = 69.4 µM

----------
TEST TARGET: murine-derived wild-type (WT) GPR39 (Mus musculus, UniProt Q5U431)
Construct: 3HA (N); P2A-mCherry (C); expressed in transfected cells; host or cells: HEK293T, transient (Lipofectamine 3000)
Sequence (Q5U431 whole entry): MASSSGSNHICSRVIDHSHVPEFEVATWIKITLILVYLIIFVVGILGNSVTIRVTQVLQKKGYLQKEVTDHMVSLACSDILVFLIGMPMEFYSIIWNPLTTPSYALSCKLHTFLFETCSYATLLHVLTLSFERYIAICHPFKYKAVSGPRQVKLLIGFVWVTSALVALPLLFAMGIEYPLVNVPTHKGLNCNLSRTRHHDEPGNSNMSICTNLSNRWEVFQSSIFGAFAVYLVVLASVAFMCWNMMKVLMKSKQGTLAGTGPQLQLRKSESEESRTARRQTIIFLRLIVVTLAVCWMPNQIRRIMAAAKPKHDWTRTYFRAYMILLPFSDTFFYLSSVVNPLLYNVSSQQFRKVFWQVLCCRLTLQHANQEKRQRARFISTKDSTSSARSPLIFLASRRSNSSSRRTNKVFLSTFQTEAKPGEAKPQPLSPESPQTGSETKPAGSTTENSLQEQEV
PROTOCOL SUMMARY: Calcium imaging on 293T cells transiently transfected with wild-type GPR39
Format: cell-based
EXPERIMENTAL CONTEXT: transiently transfected HEK293T cells, agonist alone
PROPERTY MEASURED: EC50 (µM)
Output spec: scalar in µM, unitless text.

- COMPOUND: "[Zn+2] [Zinc ions, reference compound]"
  TEST TARGET: "murine-derived wild-type (WT) GPR39 (Mus musculus, UniProt Q5U431)"
  PROPERTY MEASURED: "EC50"
  RESULT NUMBER: 12

Now consider the entry below.
Entry C[C@H](CCC(=O)O)[C@H]1CC[C@H]2[C@@H]3CC[C@@H]4C[C@H](OS(=O)(=O)O)CC[C@]4(C)[C@H]3CC[C@]12C ; EC50 = 33.1

----------
TEST TARGET: GPR39 receptors on m39-20 cell lines (Mus musculus, UniProt Q5U431, T447P)
Construct: P2A-mCherry (C); expressed in transfected cells
Sequence (Q5U431 whole entry T447P): as the sequence (Q5U431 whole entry) above, with T447P counted along it
PROTOCOL SUMMARY: FLIPR calcium imaging on m39-20 cell lines stably expressing murine-derived GPR39
Format: cell-based
EXPERIMENTAL CONTEXT: activation efficacy, m39-20 cells, no zinc ions
PROPERTY MEASURED: Only bile acid Efficacy (%)
Output spec: scalar in %, unitless text.

Examples with their reported Only bile acid Efficacy follow.
- COMPOUND: "C[C@H](CCC(=O)NCCS(=O)(=O)O)[C@H]1CC[C@H]2[C@@H]3CC[C@@H]4C[C@H](OS(=O)(=O)O)CC[C@]4(C)[C@H]3C[C@H](O)[C@]12C [TDCAS]"
  Only bile acid Efficacy [%]: 0
- COMPOUND: "C[C@H](CCC(=O)NCCS(=O)(=O)O)[C@H]1CC[C@H]2[C@@H]3[C@H](O)C[C@@H]4C[C@H](OS(=O)(=O)O)CC[C@]4(C)[C@H]3CC[C@]12C [TCDCAS]"
  Only bile acid Efficacy [%]: 0
- COMPOUND: "C[C@H](CCC(=O)NCCS(=O)(=O)O)[C@H]1CC[C@H]2[C@@H]3[C@@H](O)C[C@@H]4C[C@H](OS(=O)(=O)O)CC[C@]4(C)[C@H]3CC[C@]12C [TUDCAS]"
  Only bile acid Efficacy [%]: 0
- COMPOUND: "C[C@H](CCC(=O)NCCS(=O)(=O)O)[C@H]1CC[C@H]2[C@@H]3[C@H](O)C[C@@H]4C[C@H](O)CC[C@]4(C)[C@H]3C[C@H](O)[C@]12C [TCA]"
  Only bile acid Efficacy [%]: 0
- COMPOUND: "C[C@H](CCC(=O)NCC(=O)O)[C@H]1CC[C@H]2[C@@H]3CC[C@@H]4C[C@H](OS(=O)(=O)O)CC[C@]4(C)[C@H]3C[C@H](O)[C@]12C [GDCAS]"
  Only bile acid Efficacy [%]: 0
- COMPOUND: "C[C@H](CCC(=O)NCC(=O)O)[C@H]1CC[C@H]2[C@@H]3[C@H](O)C[C@@H]4C[C@H](O)CC[C@]4(C)[C@H]3C[C@H](O)[C@]12C [GCA]"
  Only bile acid Efficacy [%]: 0

Entry C[C@H](CCC(=O)NCC(=O)O)[C@H]1CC[C@H]2[C@@H]3CC[C@@H]4C[C@H](OS(=O)(=O)O)CC[C@]4(C)[C@H]3CC[C@]12C [GLCAS] ; Only bile acid Efficacy = 98.8

Entry C[C@H](CCC(=O)NCC(=O)O)[C@H]1CC[C@H]2[C@@H]3[C@H](O)C[C@@H]4C[C@H](O)CC[C@]4(C)[C@H]3CC[C@]12C [GCDCA] ; Only bile acid Efficacy = 16.5

Entry C[C@H](CCC(=O)O)[C@H]1CC[C@H]2[C@@H]3[C@H](O)C[C@@H]4C[C@H](O)CC[C@]4(C)[C@H]3CC[C@]12C [CDCA, Chenodeoxycholic acid] ; Only bile acid Efficacy = 0

Entry C[C@H](CCC(=O)NCC(=O)O)[C@H]1CC[C@H]2[C@@H]3[C@@H](O)C[C@@H]4C[C@H](O)CC[C@]4(C)[C@H]3CC[C@]12C [GUDCA] ; Only bile acid Efficacy = 0

Entry C[C@H](CCC(=O)NCC(=O)O)[C@H]1CC[C@H]2[C@@H]3CC[C@@H]4C[C@H](O)CC[C@]4(C)[C@H]3CC[C@]12C [GLCA] ; Only bile acid Efficacy = 0
